molecular target: Claudin18.2-His protein (human); assay: indirect ELISA on coated Claudin18.2-His
Parameter EC50: see the listing below.
Reply numerically in µg/mL, unit not repeated.

# annotated cases, reported EC50 shown
Prompt: GET /values?readout=EC50&item= 279E8B8 (antibody, V domains shown) VH: QAYLQQSGAELVRSGASVKISCKASGYTFASHNMHWVKQTPGQGLEWIGYIYPGNGGTKYNQKFTGKATLSADTSSSTAYLQISSLTSEDSAVYFCARDYFGNSFVYWGQGTLVTVSA VL: DIVMTQSPSSLTEKAGEKVSMRCKSSQSLLNSGNQKNYLTWYQQKPGQPPKLLIYWASTRESGVPDRFTGSGSGTDFTLTISSVQADDLAVYYCQNDYMYPFTFGAGTKLELK
Response: 0.0201

Prompt: Give its EC50 value. Item: 430B3F1 (antibody, V domains shown) VH: DVQLVESGGGLVQPGGSRKLSCAASGFTFSGFGMHWIRQTPEKGLEWVAYISSGGRPIYYADTVQGRFTISRDNPKNTLFLQMTSLRSEDTAMYFCARFYYGNSFDHWGQGTLVTISS VL: DIVMTQSPSFLTVTAGEKVTMSCKSSQSLLNSGNQKNYLTWYQQKPGQPPKLLIYWASTRESGVPDRFTGSGSGTDFTLTISSVQAEDLALYYCQNAYSFPLTFGAGTKLELK
Response: 0.0154

Field: next binder
Prompt: Name the reported EC50 value associated with the binder 194A2F7 (antibody, V domains shown) VH: QIQLVQSGPELKKPGETVKISCKASGYTFTDYLIHWVKQAPGKGLKWMGWINTETGEPTYADDFKGRFALSLETSASTACLQINNLKNEDTATYFCARIYYGNSFDYWGQGTTLTVSS VL: DIVMTQSPSSLPVTAGEKVTMTCKSSQNLLNSGNQKSYLTWYQQKPGQPPKLLIYWASTRETGVPDRFTGSGSGTDFTLTISSVQAEDLAVYYCQNAYRFPFTFGAGTRLELK
Response: 0.0438
